Values from patent US5945507A

- System: S. aureus
- Assay type: cell-based, Staphylococcus aureus
- measurement context: Table 4; peptide concentration (closest 2-fold dilution) reducing CFU/ml by 99.9%; 1 hour
For each record, write down the corresponding MBC.
One number for each entry, in µM.

sequence entry: LLSRVYQILQPILQRLSATLQRIREVLR [SLP2B, SIVMM239 790-817]
meas value: 1

Next sequence, please.
Request: Entry YHRLRDLLLIVTRIVELLGRR [LLP2, HIVHXB2R 768-788] has what MBC?
Result: 4

* * *

Can you tell me MBC for the items I'm about to list?
- Tested on: S. aureus
- Type: cell-based, Staphylococcus aureus
- measurement context: Table 4; peptide concentration (closest 2-fold dilution) reducing CFU/ml by 99.9%; 1 hour

sequence entry: DLWETLRRGGRWILAIPRRIRQGLELTL [SLP1]
MBC: > 16 µM

Quick request: MBC for each listed item, please.
1. RIAGYGLRGLAVIIRICIRGLNLIFEIIR [ELP, EIAV 808-836 (Wyoming)]
2. FLIRQLIRLLTWLFSNCRTLLSRVY [SLP2A, SIVMM239 771-795]

Result:
1: > 10 µM; 2: > 32 µM
